study_system: CYP1A2 (Homo sapiens, UniProt P05177)
Sequence (P05177 whole entry): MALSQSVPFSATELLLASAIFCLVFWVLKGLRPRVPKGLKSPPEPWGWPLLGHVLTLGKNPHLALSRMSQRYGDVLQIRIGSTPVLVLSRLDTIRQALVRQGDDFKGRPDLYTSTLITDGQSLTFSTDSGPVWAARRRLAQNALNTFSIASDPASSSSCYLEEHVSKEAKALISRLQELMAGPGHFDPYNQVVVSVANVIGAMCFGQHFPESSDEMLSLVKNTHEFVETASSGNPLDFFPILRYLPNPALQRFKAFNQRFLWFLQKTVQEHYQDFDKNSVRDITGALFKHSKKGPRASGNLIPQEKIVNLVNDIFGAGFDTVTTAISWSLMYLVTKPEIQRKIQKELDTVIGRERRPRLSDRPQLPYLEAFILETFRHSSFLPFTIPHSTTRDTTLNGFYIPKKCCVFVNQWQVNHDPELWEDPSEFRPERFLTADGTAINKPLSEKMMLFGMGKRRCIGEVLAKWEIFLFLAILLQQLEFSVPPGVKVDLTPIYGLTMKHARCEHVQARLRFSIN
assay_explanation: Cytochrome P450 inhibition, pooled human hepatic microsome
Assay type: in vitro ADME
condition: procedure of Example 14
Can you tell me IC50 for the items I'm about to list?

Some solved entries appear below for comparison.
| compound | IC50 |
| --- | --- |
| c1ccc2c(c1)ccn2[C@H]1C[C@H]2CCC[C@@H](C1)N2[C@H]1C[C@@H]2CCC[C@@H](C2)C1 [Compound 11] | > 20 µM |
| O=C(O)Cc1cn([C@H]2C[C@H]3CCC[C@@H](C2)N3C2CCCCCCCCC2)c2ccccc12 [Compound 23] | > 20 µM |

Any idea what its IC50 is? The compound is O=C(O)Cc1cn([C@H]2C[C@H]3CCC[C@@H](C2)N3[C@H]2C[C@@H]3CCC[C@@H](C3)C2)c2ccccc12 [Compound 7]
> 20 µM

----------
The listing below reports IC50 for molecules tested on CYP3A4 (Homo sapiens, UniProt P08684).
Sequence (P08684 whole entry): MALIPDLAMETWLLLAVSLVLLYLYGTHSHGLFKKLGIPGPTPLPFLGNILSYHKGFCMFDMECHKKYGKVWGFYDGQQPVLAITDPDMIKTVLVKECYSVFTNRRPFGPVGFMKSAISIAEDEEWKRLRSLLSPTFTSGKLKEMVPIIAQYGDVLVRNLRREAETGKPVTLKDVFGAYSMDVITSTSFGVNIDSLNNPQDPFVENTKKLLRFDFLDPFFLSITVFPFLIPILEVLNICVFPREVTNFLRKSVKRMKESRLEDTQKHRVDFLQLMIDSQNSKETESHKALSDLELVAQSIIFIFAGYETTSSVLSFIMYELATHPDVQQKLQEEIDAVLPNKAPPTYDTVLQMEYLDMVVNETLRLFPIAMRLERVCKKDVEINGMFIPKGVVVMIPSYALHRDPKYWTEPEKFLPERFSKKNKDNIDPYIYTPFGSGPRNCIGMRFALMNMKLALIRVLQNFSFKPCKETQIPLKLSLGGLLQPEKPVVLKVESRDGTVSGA

Some solved entries appear below for comparison.
| given_smiles | IC50 |
| --- | --- |
| c1ccc2c(c1)ccn2[C@H]1C[C@H]2CCC[C@@H](C1)N2[C@H]1C[C@@H]2CCC[C@@H](C2)C1 | > 20 µM |
| O=C(O)Cc1cn([C@H]2C[C@H]3CCC[C@@H](C2)N3C2CCCCCCCCC2)c2ccccc12 | > 20 µM |

Now look at this entry.
Any idea what its IC50 is? The molecule is "O=C(O)Cc1cn([C@H]2C[C@H]3CCC[C@@H](C2)N3[C@H]2C[C@@H]3CCC[C@@H](C3)C2)c2ccccc12"
> 20 µM
